species on record: Mus musculus; assay: Distribution of compound in skull tissue of mice after 24 hr injection time was determined; assay type: ADME, organism-based; conditions: in vivo
value kind: Injected (%)

1 = O=P(O)(O)C(CCc1cccc(I)c1)P(=O)(O)O
2 = O=P(O)(O)C(Cc1cccc(I)c1)P(=O)(O)O
3 = O=P(O)(O)C(O)(Cc1cccc(I)c1)P(=O)(O)O
4 = O=P(O)(O)C(NCCc1cccc(I)c1)P(=O)(O)O
Q. Using the list above, order everything by rising Injected. Reply with the labels, ordered as the question asks.
A. 4, 2, 1, 3

---

species on record: Mus musculus; assay: Distribution of compound in blood tissue of mice after 24 hr injection time was determined; type: ADME, organism-based; conditions: in vivo
value kind: Injected (%)

{"columns": ["smiles repr", "Injected [%]"],
 "data": [
  ["O=P(O)(O)C(NCCc1cccc(I)c1)P(=O)(O)O", 0.18],
  ["O=P(O)(O)C(Cc1cccc(I)c1)P(=O)(O)O", 0.03]
]}

A = O=P(O)(O)C(CCc1cccc(I)c1)P(=O)(O)O
B = O=P(O)(O)C(O)(Cc1cccc(I)c1)P(=O)(O)O
Q. # compare Injected for A vs B ; return the one with the smaller value Use the label to indicate which entry you chose.
A. A
(A: 0.02%, B: 0.09%)

---

species: Mus musculus; test: Distribution of compound in femur tissue of mice after 24 hr injection time was determined; assay type: ADME, organism-based; details: in vivo
value kind: Injected (%)

{"columns": ["smiles repr", "value kind", "numeric readout"],
 "data": [
  ["O=P(O)(O)C(Cc1cccc(I)c1)P(=O)(O)O", "Injected", 15.25]
]}

P = O=P(O)(O)C(O)(Cc1cccc(I)c1)P(=O)(O)O
Q = O=P(O)(O)C(CCc1cccc(I)c1)P(=O)(O)O
R = O=P(O)(O)C(NCCc1cccc(I)c1)P(=O)(O)O
Q. Let's sort these by Injected, smallest first. Go ahead? Reply with the labels, ordered as the question asks.
A. R, Q, P
(R: 1.39%, Q: 8.84%, P: 37.79%)

---

species: Mus musculus; test: Distribution of compound in intestine tissue of mice after 24 hr injection time was determined; format: ADME, organism-based; conditions: in vivo
value kind: Injected (%)

P = O=P(O)(O)C(O)(Cc1cccc(I)c1)P(=O)(O)O
Q = O=P(O)(O)C(Cc1cccc(I)c1)P(=O)(O)O
R = O=P(O)(O)C(CCc1cccc(I)c1)P(=O)(O)O
S = O=P(O)(O)C(NCCc1cccc(I)c1)P(=O)(O)O
Q. List these items ordered by Injected, big to small. Reply with the labels, ordered as the question asks.
A. Q, P, S, R
(Q: 0.28%, P: 0.16%, S: 0.1%, R: 0.05%)

---

organism: Mus musculus; test: Distribution of compound in kidneys tissue of mice after 24 hr injection time was determined; assay type: ADME, organism-based, Kidney; conditions: in vivo
value kind: Injected (%)

{"columns": ["smiles repr", "quantity unit", "Injected"],
 "data": [
  ["O=P(O)(O)C(CCc1cccc(I)c1)P(=O)(O)O", "%", 0.85]
]}

a = O=P(O)(O)C(O)(Cc1cccc(I)c1)P(=O)(O)O
b = O=P(O)(O)C(NCCc1cccc(I)c1)P(=O)(O)O
c = O=P(O)(O)C(Cc1cccc(I)c1)P(=O)(O)O
Q. Let's sort these by Injected, smallest first. Go ahead? Reply with the labels, ordered as the question asks.
A. b, c, a

---

species on record: Mus musculus; experiment: Distribution of compound in heart tissue of mice after 24 hr injection time was determined; type: ADME, organism-based; details: in vivo
value kind: Injected (%)

1 = O=P(O)(O)C(Cc1cccc(I)c1)P(=O)(O)O
2 = O=P(O)(O)C(NCCc1cccc(I)c1)P(=O)(O)O
Q. I'd appreciate it if you could identify which of 1 and 2 has the greater Injected. Use the label to indicate which entry you chose.
A. 2
(2: 0.19%, 1: 0.04%)

1 = O=P(O)(O)C(CCc1cccc(I)c1)P(=O)(O)O
2 = O=P(O)(O)C(O)(Cc1cccc(I)c1)P(=O)(O)O
Q. # compare Injected for 1 vs 2 ; return the one with the smaller value Use the label to indicate which entry you chose.
A. 1
(1: 0.06%, 2: 0.18%)

---

species on record: Mus musculus; assay: Distribution of compound in spleen tissue of mice after 24 hr injection time was determined; type: ADME, organism-based; conditions: in vivo
value kind: Injected (%)

a = O=P(O)(O)C(Cc1cccc(I)c1)P(=O)(O)O
b = O=P(O)(O)C(CCc1cccc(I)c1)P(=O)(O)O
Q. I'd appreciate it if you could identify which of a and b has the greater Injected. Use the label to indicate which entry you chose.
A. b

I = O=P(O)(O)C(O)(Cc1cccc(I)c1)P(=O)(O)O
II = O=P(O)(O)C(NCCc1cccc(I)c1)P(=O)(O)O
Q. # compare Injected for I vs II ; return the one with the smaller value Use the label to indicate which entry you chose.
A. I

---

organism: Mus musculus; test: Distribution of compound in stomach tissue of mice after 24 hr injection time was determined; assay type: ADME, organism-based; conditions: in vivo
value kind: Injected (%)

{"columns": ["smiles repr", "quantity unit", "Injected"],
 "data": [
  ["O=P(O)(O)C(Cc1cccc(I)c1)P(=O)(O)O", "%", 0.05]
]}

P = O=P(O)(O)C(CCc1cccc(I)c1)P(=O)(O)O
Q = O=P(O)(O)C(O)(Cc1cccc(I)c1)P(=O)(O)O
Q. # compare Injected for P vs Q ; return the one with the smaller value Use the label to indicate which entry you chose.
A. P

---

organism: Mus musculus; experiment: Distribution of compound in lungs tissue of mice after 24 hr injection time was determined; format: ADME, organism-based, Lung; conditions: in vivo
value kind: Injected (%)

{"columns": ["smiles repr", "Injected [%]"],
 "data": [
  ["O=P(O)(O)C(NCCc1cccc(I)c1)P(=O)(O)O", 0.67]
]}

I = O=P(O)(O)C(O)(Cc1cccc(I)c1)P(=O)(O)O
II = O=P(O)(O)C(CCc1cccc(I)c1)P(=O)(O)O
III = O=P(O)(O)C(Cc1cccc(I)c1)P(=O)(O)O
Q. List items by Injected in falling order. Reply with the labels, ordered as the question asks.
A. I, II, III
(I: 0.54%, II: 0.21%, III: 0.06%)

---

species: Mus musculus; assay: Distribution of compound in liver tissue of mice after 24 hr injection time was determined; type: ADME, organism-based; conditions: in vivo
value kind: Injected (%)

Study these solved cases before continuing.
{"columns": ["smiles repr", "Injected / %"],
 "data": [
  ["O=P(O)(O)C(O)(Cc1cccc(I)c1)P(=O)(O)O", 2.27],
  ["O=P(O)(O)C(Cc1cccc(I)c1)P(=O)(O)O", 0.23]
]}

A = O=P(O)(O)C(NCCc1cccc(I)c1)P(=O)(O)O
B = O=P(O)(O)C(CCc1cccc(I)c1)P(=O)(O)O
Q. # compare Injected for A vs B ; return the one with the smaller value Use the label to indicate which entry you chose.
A. B

---

species: Mus musculus; experiment: Distribution of compound in thyroid tissue of mice after 24 h injection time was determined; type: ADME, organism-based, Thyroid gland; conditions: in vivo
value kind: Injected (%)

Study these solved cases before continuing.
{"columns": ["smiles repr", "Injected, %"],
 "data": [
  ["O=P(O)(O)C(Cc1cccc(I)c1)P(=O)(O)O", 0.02],
  ["O=P(O)(O)C(NCCc1cccc(I)c1)P(=O)(O)O", 0.02]
]}

I = O=P(O)(O)C(CCc1cccc(I)c1)P(=O)(O)O
II = O=P(O)(O)C(O)(Cc1cccc(I)c1)P(=O)(O)O
Q. I'd appreciate it if you could identify which of I and II has the greater Injected. Use the label to indicate which entry you chose.
A. II
